Source of measurements: patent US20240207421A1

Assayed system: Human MPZ (human) (UniProt P25189)
Sequence (P25189 30-153 limits assumed): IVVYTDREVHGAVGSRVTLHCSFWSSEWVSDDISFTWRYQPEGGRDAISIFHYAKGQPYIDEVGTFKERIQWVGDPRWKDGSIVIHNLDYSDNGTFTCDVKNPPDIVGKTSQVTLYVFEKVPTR
Assay protocol: phage display, NGS count
So basically: Count at 40 or higher? That is 1.0. Lower than 40? That is 0.0.

Substance	Category label
TSPWELR (peptide)	1.0
DRNSVFW (peptide)	1.0
DPITRLK (peptide)	1.0
LVLSNPR (peptide)	1.0
HPFPRFD (peptide)	1.0

Is Count at least 40? Consider LPAESHW (peptide)
1.0

Is Count at least 40? Consider GPLRMAT (peptide)
1.0

Is Count at least 40? Consider VLTKPMP (peptide)
1.0

Is Count at least 40? Consider FMSDVDH (peptide)
0.0

Is Count at least 40? Consider HNQLLYT (peptide)
0.0

Is Count at least 40? Consider SAHSVVE (peptide)
0.0

Is Count at least 40? Consider VLKNNPT (peptide)
1.0

Is Count at least 40? Consider LSSPLSL (peptide)
1.0

Is Count at least 40? Consider AMSNLSY (peptide)
1.0

Is Count at least 40? Consider LVLQTTP (peptide)
0.0

Is Count at least 40? Consider QIAHLEY (peptide)
1.0

----------
Assayed system: Human Myelin Basic Protein (Homo sapiens, UniProt P02686)
Sequence (P02686 134-304): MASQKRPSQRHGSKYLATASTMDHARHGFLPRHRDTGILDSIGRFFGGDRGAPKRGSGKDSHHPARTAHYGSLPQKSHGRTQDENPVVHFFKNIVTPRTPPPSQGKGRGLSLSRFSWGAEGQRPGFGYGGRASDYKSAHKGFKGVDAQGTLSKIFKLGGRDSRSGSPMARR
Assay protocol: Phage display library screening (Example 2, Python script analysis), binding to Human Myelin Basic Protein
Design: Enzo 200-606-M001 from human; purchased Enzo 200-606-M001; host or cells: human brain (tissue-derived)
Assay context: R3 Myelin Basic Protein; combined unique sequence count, Python/R script analysis
Outcome measure: Count
Lab note: record just the number, no unit beside it.

Substance	Count
KMSLAPP (R3 Myelin Basic Protein-binding peptide)	6

Give the measured Count of GEPALVT (R3 Myelin Basic Protein-binding peptide) .
6

Give the measured Count of GPITHAI (R3 Myelin Basic Protein-binding peptide) .
7

Give the measured Count of SLDHLRL (R3 Myelin Basic Protein-binding peptide) .
6

----------
System: excised human nerve tissue (or nerve extracts)
Assay protocol: Phage display library screening (Example 2), NEB tissue-binding peptides: nerve tissue and nerve extracts versus muscle
Assay context: unique sequence count, tissue target: excised nerve, peptides not binding muscle extracts
# Count Excised Nerve annotations
Lab note: record just the number, no unit beside it.

Sequence string	Count Excised Nerve
SLQLWNSEKVTT	10
EFARFRVFGVAE	22

Return Count Excised Nerve measured with excised human nerve tissue (or nerve extracts) given this sequence: `GLTIMSSRHSLQ`
12

Return Count Excised Nerve measured with excised human nerve tissue (or nerve extracts) given this sequence: `EMVPMKFLMMAK`
8

Return Count Excised Nerve measured with excised human nerve tissue (or nerve extracts) given this sequence: `SPMANVWFNRLS`
7

Return Count Excised Nerve measured with excised human nerve tissue (or nerve extracts) given this sequence: `WEKHTGPLSRYL`
6

Return Count Excised Nerve measured with excised human nerve tissue (or nerve extracts) given this sequence: `LQTHSITYRHER`
7

Return Count Excised Nerve measured with excised human nerve tissue (or nerve extracts) given this sequence: `NYAVGDRITKNI`
18

Return Count Excised Nerve measured with excised human nerve tissue (or nerve extracts) given this sequence: `SSLYMNGWSRDQ`
23

Return Count Excised Nerve measured with excised human nerve tissue (or nerve extracts) given this sequence: `SLGSSFVQGGEL`
12

Return Count Excised Nerve measured with excised human nerve tissue (or nerve extracts) given this sequence: `NAVHRPDLNLLA`
15

Return Count Excised Nerve measured with excised human nerve tissue (or nerve extracts) given this sequence: `QNIVENFIDNER`
20

Return Count Excised Nerve measured with excised human nerve tissue (or nerve extracts) given this sequence: `VTDMLGIPKLHA`
18
